system: Nucleic Acid; assay: Binding affinity to CGCG site of DNA (unknown origin) at 10 uM by PAGE analysis; format: nucleic-acid assay
Calls of active or inactive are those of the source. The calls are words filed in the database; no cut-off is given here.
Labels: 1 = active, 0 = inactive

chem_smiles=CCC[C@@H]1C(=O)c2c(cc3cc(OCCOCCOCC(=O)NO)cc(O)c3c2O)C[C@H]1C label_class=1
chem_smiles=C[C@H]1CC(=O)c2c(cc3cc(OCC(=O)NO)cc(O)c3c2O)C1 label_class=0
chem_smiles=C[C@H]1CC(=O)c2c(cc3cc(OCCOCCOCC(=O)NO)cc(O)c3c2O)C1 label_class=1
chem_smiles=CCC[C@@H]1C(=O)c2c(cc3cc(O)cc(O)c3c2O)C[C@H]1C label_class=0
chem_smiles=C[C@H]1CC(=O)c2c(cc3cc(O)cc(O)c3c2O)C1 label_class=0
chem_smiles=O=C1CCCc2cc3cc(O)cc(O)c3c(O)c21 label_class=0
